Numbers sourced from PubChem BioAssay.

test: growth suppression of PTEN-deleted HCT116, pilot screen, cell-based, HCT116 clonal line, CellTiter-Glo (AID 824); details: 60 h, at 10 µM, active compounds read low;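 note: 0% = 20 µM Hyamine control and 100% = vehicle cell control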
Results filed as inconclusive are left out.
Below, each entry is listed alongside its reported viability.
Output spec: scalar in %, unitless text.

Worked cases, answers included:
CCC(=O)Nc1c2c(nn1-c1ccc(OC)cc1)CS(=O)C2 (stereo not drawn)
94.1
COc1ccc(C2C(C(=O)NCCN(C)C)c3cc(OC)c(OC)cc3C(=O)N2C)cc1OC (stereo not drawn)
104
CC(C)c1ccc2c(c1)C(=O)NC(C)(C)C2
97.8
Cc1cc2nc(-c3cccc(NC(=O)c4ccc(Br)o4)c3C)oc2cc1C
84.2
O=C(C(c1ccccc1)c1ccccc1)N1CCOCC1
95.9
COc1cc2c(c(O)c1OC)C(=O)C(OC)CCC2 (stereo not drawn)
93.7
COc1ccc(C(=O)Nc2nncs2)cc1S(=O)(=O)N1CC(c2ccccc2)CC1=O (stereo not drawn)
87
CCCN1CCN(C(=O)CCCn2c(C)c3cnn(-c4ccccc4)c(=O)c3c2C)CC1
105

# get_value(readout='viability', item= O=C(C1CCN(S(=O)(=O)c2cccc3cccnc23)CC1)N1CCn2c1nc1ccccc12 )
83.2

# get_value(readout='viability', item= CCOc1ccc(C2c3c(oc4ccccc4c3=O)C(=O)N2c2ccc(C)cn2)cc1OC (stereo not drawn) )
83.7
